Tested on: UO-31
Assay: Cytotoxicity against human UO31 cells assessed as cell growth at 0.1 uM after 48 hrs by sulforhodamine B assay relative to control
Format: functional
Conditions: UO-31, 48 h, read-out: Activity
PROPERTY: growth at 0.1 µM (%)

* COc1cc(-c2cc(/C=C/C(=O)c3ccc(Cl)c(Cl)c3)[nH]n2)cc(OC)c1OC | 85
* COc1ccc(C(=O)/C=C/c2cc(-c3ccc4c(c3)OCO4)n[nH]2)cc1OC | 81
* COc1ccc(-c2cc(/C=C/C(=O)c3ccc(N)cc3)[nH]n2)cc1OC | 99
* COc1ccc(C(=O)/C=C/c2cc(-c3ccc(OC)c(OC)c3)n[nH]2)cc1OC | 91
